Molecular target: T1, Cdc25, P04821
T1 sequence (P04821 50-136, looked up): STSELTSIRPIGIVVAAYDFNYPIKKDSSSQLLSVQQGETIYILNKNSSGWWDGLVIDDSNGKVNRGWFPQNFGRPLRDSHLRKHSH
Experiment: SPOT array
Settings: median of control spots 969
measuredMetric: SPOT intensity

>>> observedvalue("FYHRPAPKPPVTKKV")
0

1 = NFLRLLIGLPSQNEL
2 = PSRRDSLSIPRAVDA
3 = NMLSRPRLAKLPSIR
4 = NNFYRPLLRSVLVLL
5 = HHKRRPTTIDVPGLT
IN: Would you mind ranking these binders by ascending SPOT intensity? # format: label list in the order the request specifies
OUT: 2, 4, 5, 3, 1
(2: 0, 4: 22, 5: 42, 3: 108, 1: 354)
